system: xanthine oxidase (XO); assay: In vitro xanthine oxidase (XO) inhibiting action; format: biochemical; settings: Table 2; XO inhibition at 100 μM
Value kind: Inhibition Rate (%) at Concentration of 100 μM

• O=C(O)CC[C@@H]1NC(=O)[C@H](Cc2ccc(O)cc2)NC1=O = 0.4
• NC(=O)CC[C@@H]1NC(=O)[C@H](Cc2ccc(O)cc2)NC1=O = 42.6
• O=C1N[C@@H](Cc2c[nH]cn2)C(=O)N[C@H]1Cc1ccc(O)cc1 = 3.2
• O=C1N[C@@H](Cc2ccc(O)cc2)C(=O)N2CCC[C@@H]12 = 2.3

a: C[C@@H](O)[C@@H]1NC(=O)[C@H](Cc2ccc(O)cc2)NC1=O
b: NCCCC[C@@H]1NC(=O)[C@H](Cc2ccc(O)cc2)NC1=O
c: CC1NC(=O)C(Cc2ccc(O)cc2)NC1=O (stereo not shown)
Enquiry: Ascending by Inhibition Rate (%) at Concentration of 100 μM, please. Your reply should list the labels following the order given in the request.
Return: a, c, b
(a: 2.6%, c: 8.3%, b: 25.7%)
